Where do the numbers come from? From patent US9012445B2.

- Assayed System: mAChR M1 (Homo sapiens)
- Construct: expressed in transfected cells; host or cells: CHO-K1
- Protocol Text: mAChR M1 cell-based functional assay (calcium mobilization, potentiation of EC20 acetylcholine response in CHO-K1 cells)
- Condition Details: CHO-K1; maximal response of curve fit or response at 30 μM test compound, as % of response to an about EC80 ACh concentration; read-out: Emax (% ACh maximum at 30 μM)
Readout Kind: Emax (%)

The examples below pair each entry with its known result.
- Cn1cc(-c2ccc(CN3C(=O)NCc4ccccc43)c(F)c2)cn1 [Compound B19]: 46
- Cn1cc(-c2ccc(CN3CC(C(=O)O)c4ccccc43)c(F)c2)cn1 (stereo not drawn) [Compound B25]: 52
- Cn1cc(-c2ccc(Cn3cc(S(=O)(=O)CCNC(=O)c4cnccn4)c4c(F)cc(F)cc43)c(F)c2)cn1 [Compound B4]: 52
- Cn1cc(-c2ccc(Cn3cc(S(=O)(=O)CCNC(=O)c4ccncc4)c4c(F)cc(F)cc43)c(F)c2)cn1 [Compound B31]: 30
- Cn1cc(-c2ccc(Cn3cc(S(=O)(=O)CCNC(=O)c4ccno4)c4c(F)cc(F)cc43)c(F)c2)cn1 [Compound B2]: 27
- Cn1cc(-c2ccc(CN3Cc4ccccc4C3C(=O)O)c(F)c2)cn1 (stereo not drawn) [Compound B26]: 61
- Cn1cc(-c2ccc(Cn3cc(C(=O)NCCc4ccccn4)c4ccccc43)c(F)c2)cn1 [Compound B28]: 35
- Cn1cc(-c2ccc(Cn3cc(C(=O)O)c4ccccc43)c(F)c2)cn1 [Compound B27]: 48
- Cn1cc(-c2ccc(CNc3ccccc3S(C)(=O)=O)c(F)c2)cn1 [Compound B15]: 34
- Cn1cc(-c2ccc(CN3Cc4ccccc4C3)c(F)c2)cn1 [Compound B5]: 38

a = COc1cc2ccccc2n(Cc2ccc(-c3cnn(C)c3)cc2F)c1=O [Compound B1]
b = Cn1cc(-c2ccc(Cn3cc(S(C)(=O)=O)c4ccccc43)c(F)c2)cn1 [Compound B7]
**Q:** Select one: a or b . Criterion: greater recorded Emax. Respond with the label that goes with your answer.
**A:** b

a = Cn1cc(-c2ccc(CN3C(=O)CSc4ccccc43)c(F)c2)cn1 [Compound B16]
b = Cn1cc(-c2ccc(CN3C(=O)OCc4ccccc43)c(F)c2)cn1 [Compound B3]
**Q:** Which has the smaller recorded Emax, a or b ? Respond with the label that goes with your answer.
**A:** a

a = Cn1cc(-c2ccc(Cn3cc(S(=O)(=O)CCNC(=O)c4cccnn4)c4c(F)cc(F)cc43)c(F)c2)cn1 [Compound B10]
b = Cn1cc(-c2ccc(Cn3cc(S(=O)(=O)CCNC(=O)c4cocn4)c4c(F)cc(F)cc43)c(F)c2)cn1 [Compound B32]
**Q:** Select one: a or b . Criterion: greater recorded Emax. Respond with the label that goes with your answer.
**A:** b
(b: 57%, a: 36%)

P = Cn1cc(-c2ccc(Cn3cc(S(=O)(=O)CCNC(=O)c4ccnnc4)c4c(F)cc(F)cc43)c(F)c2)cn1 [Compound B11]
Q = Cn1cc(-c2ccc(Cn3cc(S(=O)(=O)CCNC(=O)c4ccn[nH]4)c4c(F)cc(F)cc43)c(F)c2)cn1 [Compound B12]
**Q:** Which has the smaller recorded Emax, P or Q ? Respond with the label that goes with your answer.
**A:** Q

---

- Assayed System: mAChR M1 (Homo sapiens, UniProt P11229)
- Construct: expressed in transfected cells; host or cells: CHO-K1
- Sequence (P11229 1-460): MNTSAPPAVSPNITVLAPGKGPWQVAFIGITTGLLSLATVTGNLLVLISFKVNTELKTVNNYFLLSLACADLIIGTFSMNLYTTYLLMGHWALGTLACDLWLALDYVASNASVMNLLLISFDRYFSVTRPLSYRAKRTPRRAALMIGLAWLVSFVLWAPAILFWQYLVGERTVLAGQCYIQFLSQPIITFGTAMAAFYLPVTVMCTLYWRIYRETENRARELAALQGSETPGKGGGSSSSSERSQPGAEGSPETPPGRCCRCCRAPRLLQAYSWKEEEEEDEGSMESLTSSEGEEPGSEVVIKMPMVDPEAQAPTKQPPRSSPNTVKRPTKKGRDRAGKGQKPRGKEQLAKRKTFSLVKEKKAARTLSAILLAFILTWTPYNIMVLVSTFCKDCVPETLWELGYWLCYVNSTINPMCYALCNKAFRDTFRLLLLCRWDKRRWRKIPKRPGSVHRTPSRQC
- Protocol Text: mAChR M1 cell-based functional assay (calcium mobilization, potentiation of EC20 acetylcholine response in CHO-K1 cells)
- Condition Details: CHO-K1; maximal response of curve fit or response at 30 μM test compound, as % of response to an about EC80 ACh concentration; read-out: Emax (% ACh maximum at 30 μM)
Readout Kind: Emax (%)

- Cn1cc(-c2ccc(Cn3c(=O)ccc4ccccc43)c(F)c2)cn1: 45
- Cn1cc(-c2ccc(Cn3cc(C(=O)Nc4cccnc4)c4ccccc43)c(F)c2)cn1: 50
- Cn1cc(-c2ccc(CN3C(=O)C[S+]([O-])c4ccccc43)c(F)c2)cn1 (stereo not drawn): 41

---

- Assayed System: mAChR M1 (Homo sapiens, UniProt P11229)
- Construct: expressed in transfected cells; host or cells: CHO-K1
- Sequence (P11229 1-460): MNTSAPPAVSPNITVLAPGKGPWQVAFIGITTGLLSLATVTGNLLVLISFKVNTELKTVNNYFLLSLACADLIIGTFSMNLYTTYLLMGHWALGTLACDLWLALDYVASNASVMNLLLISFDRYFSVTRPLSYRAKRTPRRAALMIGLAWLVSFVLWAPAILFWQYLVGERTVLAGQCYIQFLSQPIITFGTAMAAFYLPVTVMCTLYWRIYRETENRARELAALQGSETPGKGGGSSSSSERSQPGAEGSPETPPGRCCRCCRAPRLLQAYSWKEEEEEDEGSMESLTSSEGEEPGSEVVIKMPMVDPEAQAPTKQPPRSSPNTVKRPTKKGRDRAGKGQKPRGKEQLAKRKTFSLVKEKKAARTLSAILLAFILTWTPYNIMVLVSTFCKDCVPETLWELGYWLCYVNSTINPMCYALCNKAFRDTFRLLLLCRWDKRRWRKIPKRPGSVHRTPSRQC
- Protocol Text: mAChR M1 cell-based functional assay (calcium mobilization, potentiation of EC20 acetylcholine response in CHO-K1 cells)
- Condition Details: CHO-K1; maximal response of curve fit or response at 30 μM test compound, as % of response to an about EC80 ACh concentration; read-out: Emax (% ACh maximum at 30 μM)
Readout Kind: Emax (%)

* Cn1cc(-c2ccc(CNc3ccccc3[S+](C)[O-])c(F)c2)cn1 (stereo not drawn) | 39
* Cn1cc(-c2ccc(CN3CC[S+]([O-])c4ccccc43)c(F)c2)cn1 (stereo not drawn) | 31
* Cn1cc(-c2ccc(CN3c4ccccc4CS3(=O)=O)c(F)c2)cn1 | 39
* Cn1cc(-c2ccc(Cn3cc(S(=O)(=O)CCNC(=O)c4cccc(F)c4)c4c(F)cc(F)cc43)c(F)c2)cn1 | 35
* Cn1cc(-c2ccc(CN3C(=O)COc4ccccc43)c(F)c2)cn1 | 44
* Cn1cc(-c2ccc(CN3C(=O)CS(=O)(=O)c4ccccc43)c(F)c2)cn1 | 36
* Cn1cc(-c2ccc(CN3C(=O)CCc4ccccc43)c(F)c2)cn1 | 44
* Cn1cc(-c2ccc(Cn3cc(S(=O)(=O)CCNC(=O)c4ccccn4)c4c(F)cc(F)cc43)c(F)c2)cn1 | 34
* Cc1cc(NC(=O)c2cn(Cc3ccc(-c4cnn(C)c4)cc3F)c3ccccc23)no1 | 43
